Origin of values: patent US20240350481A1

- PROTOCOL NOTES: T cell viability by flow cytometry
- Type: cell-based
- DETAILS: human, T cells viability (#1); Drug 100 nM

MOLECULE SMILES: Cc1nn(C)c(C)c1N[S+](=O)([O-])c1c(Cl)cc(-c2ccnc(N3CCNCC3)c2)cc1Cl
UOM: %
viability at 4 days, 100 nM: 9
